run_description: Clearance in dog at 10 mg/kg, iv
Assay type: ADME, organism-based, Canis lupus familiaris
Set-up: dose 10 mg/kg, route intravenous
experimental_conditions: in vivo
measurement_name: clearance (mL/min/kg)
Give just the numeric value; mL/min/kg need not be written.

[ask] Please report the recorded clearance for Cc1cc(C(F)(F)F)c(-c2ccc(C[C@H](NC(=O)c3c(Cl)cccc3Cl)C(=O)O)cc2)c(=O)n1C .
[reply] 16.5

====

run_description: AUC in dog at 10 mg/kg, iv
Assay type: ADME, organism-based, Canis lupus familiaris
Parameters: dose 10 mg/kg, route intravenous
experimental_conditions: plasma
measurement_name: AUC (ng·h/mL)
Give just the numeric value; ng·h/mL need not be written.

[ask] Please report the recorded AUC for Cc1cc(C(F)(F)F)c(-c2ccc(C[C@H](NC(=O)c3c(Cl)cccc3Cl)C(=O)O)cc2)c(=O)n1C .
[reply] 10900
